- tested.on: HIV-1 JR-CSF Env N411A (HIV-1 (isolate JR-CSF)) (UniProt P20871)
- method: cell-based or functional assay
quantity.name: Fold IC50 increase relative to wild-type
Answer format reminder: number followed by unit.

Recorded Fold IC50 increase relative to wild-type, per entry:
{"binder": "PGT-130 (antibody, V domains shown) VH: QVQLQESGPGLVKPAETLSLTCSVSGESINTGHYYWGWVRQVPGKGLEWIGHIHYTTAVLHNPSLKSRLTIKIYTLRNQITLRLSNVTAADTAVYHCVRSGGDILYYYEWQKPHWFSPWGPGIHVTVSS VL: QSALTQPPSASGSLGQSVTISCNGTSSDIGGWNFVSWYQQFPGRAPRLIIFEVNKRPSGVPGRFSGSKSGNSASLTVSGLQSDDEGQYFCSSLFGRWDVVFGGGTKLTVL", "quantity.name": "Fold IC50 increase relative to wild-type", "reported.value": "0.6 fold"}
{"binder": "PGT-125 (antibody, V domains shown) VH: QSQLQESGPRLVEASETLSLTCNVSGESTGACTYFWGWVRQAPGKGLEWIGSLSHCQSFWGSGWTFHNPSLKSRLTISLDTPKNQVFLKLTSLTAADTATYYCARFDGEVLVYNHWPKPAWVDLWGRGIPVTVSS VL: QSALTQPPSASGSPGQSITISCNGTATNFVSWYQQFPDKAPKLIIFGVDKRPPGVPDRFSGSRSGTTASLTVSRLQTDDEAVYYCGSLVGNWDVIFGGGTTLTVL", "quantity.name": "Fold IC50 increase relative to wild-type", "reported.value": "0.5 fold"}
{"binder": "PGT-123 (antibody, V domains shown) VH: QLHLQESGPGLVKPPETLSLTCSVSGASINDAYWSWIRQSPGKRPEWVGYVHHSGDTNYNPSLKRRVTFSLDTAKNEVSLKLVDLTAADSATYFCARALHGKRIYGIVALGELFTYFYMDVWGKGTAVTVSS VL: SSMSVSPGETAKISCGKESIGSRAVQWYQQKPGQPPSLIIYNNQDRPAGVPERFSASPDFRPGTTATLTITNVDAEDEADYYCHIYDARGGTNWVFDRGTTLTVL", "quantity.name": "Fold IC50 increase relative to wild-type", "reported.value": "0.5 fold"}

For the binder shown here, PGT-127 (antibody, V domains shown) VH: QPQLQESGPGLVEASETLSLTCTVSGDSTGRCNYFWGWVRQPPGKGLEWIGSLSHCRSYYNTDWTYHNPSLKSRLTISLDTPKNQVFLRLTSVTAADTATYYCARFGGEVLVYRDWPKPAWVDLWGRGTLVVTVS VL: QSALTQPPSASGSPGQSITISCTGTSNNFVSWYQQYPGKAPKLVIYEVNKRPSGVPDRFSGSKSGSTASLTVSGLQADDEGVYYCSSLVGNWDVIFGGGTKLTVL , give the reported Fold IC50 increase relative to wild-type. 0.8 fold
